# method: Antiplatelet activity against rabbit platelets assessed as inhibition of PAF-induced platelet aggregation at 100 ug/ml preincubated for 3 mins by turbidimetric method
# Assay type: functional, Oryctolagus cuniculus
# Parameters: scale not given: the % may be the effect or the level left
Param label: returns t when Activity < 7%, returns f otherwise, including exact equality.

{"compound": "CCCCCCCCC/C=C/C=C/C(=O)NCC(C)(C)O [TETRAHYDROBUNGEANOOL]", "class": "t"}
{"compound": "CC(=O)[C@H]1CC[C@H]2[C@@H]3CC=C4C[C@@H](O)CC[C@]4(C)[C@H]3CC[C@]12C [PREGNENOLONE]", "class": "f"}
{"compound": "CC/C=C\\C/C=C\\CC/C=C/C=C/C(=O)NCC(C)(C)O", "class": "f"}
{"compound": "CCCCCCC(=O)CC/C=C/C=C/C(=O)NCC(C)C [LANYUAMIDE I]", "class": "t"}
{"compound": "COc1ccc2c(c1OC)CN1CCc3cc4c(cc3[C@@H]1C2)OCO4 [CANADINE]", "class": "f"}

IN: State whether 7% exceeds Activity recorded for CCC(=O)CC/C=C\CC/C=C/C=C/C(=O)NCC(C)C [LANYUAMIDE II] .
OUT: t

IN: State whether 7% exceeds Activity recorded for O=c1ccc2nccc3c4ccccc4n1c23 [CANTHIN-6-ONE] .
OUT: f

IN: State whether 7% exceeds Activity recorded for `COc1ccc(-c2oc3c(OC)c(OC)cc(OC(C)=O)c3c(=O)c2OC(C)=O)cc1` .
OUT: t

IN: State whether 7% exceeds Activity recorded for COc1cc2ccc(=O)oc2cc1O [SCOPOLETIN] .
OUT: f
